Taken from patent US20140179896A1.

# subject-of-test: T1, human vascular endothelial growth factor receptor-2 Fc chimera (KDR-Fc) (human, UniProt P35968 20-764)
# T1 construct: range 1-764; also called human VEGFR-2; VEGF-R2-Fc; not shown: human IgG1 Fc
# assay-text: radioactive equilibrium binding, 1 nM KDR-Fc
Recorded Binding to 1 nM KDR, % by entry
endpoint-label: Binding to 1 nM KDR, %

binder	result
1′DelD5 PR4 (designed binder, Del 1-8) EVVAATPTSLLISWRHPHFPTRYYRITYGETGGNSPVQEFTVPLQPPTATISGLKPGVDYTITGYAVTVGQNHHELFTPISINYRT	17%
4′B7 PR4 (designed binder, Del 1-8) EVVAATPTSLLISWRHPHFPTRYYRITYGETGGNSPVQEFTVPLQPPTATISGLKPGVDYTITGYAVTVAQNNHELLTPISINYRT	16%
3′B2 PR4 (designed binder, Del 1-8) EVVAATPTSLLISWRHPHFPTRYYRITYGETGGNSPVQEFTVPLQPPTATISGLKPGVDYTITGYAVTVGRNDRELLTPISINYRT	29%
K4 (designed binder, Del 1-8) EVVAATPTSLLISWRHPHFPTRYYRITYGETGGNSPVQEFTVPLQPPTATISGLKPGVDYTITGYAVTAGYNDQILMTPISINYRT	38%
2′Del D10 PR4 (designed binder, Del 1-8) EVVAATPTSLLISWRHPHFPTRYYRITYGETGGNSPVQEFTVPLQPPTATISGLKPGVDYTITGYAVTLADNARELLTPISINYRT	34%
